# System: E. coli TESEC Mtb Alr
# assay_info: growth (OD600 after 10 h); higher = more growth (less inhibition)
# test_settings: arabinose 10000 nM; compound 0.1 mM; raw OD600 reference: median of DMSO wells 0.264, cell-free background 0.041
Where a name gives a salt, the structure may show the parent alone.
Quick rule: growth of at least 0.2 means 1, below that means -1.

compound	qualitative_label
COc1ccccc1N1CCN(CCCCNC(=O)c2ccc3ccccc3c2)CC1	1

Q: Please tell me: is the compound Nc1c(Br)cc(Br)cc1CN[C@H]1CC[C@H](O)CC1 [Ambroxol hydrochloride] at or over 0.2 in terms of growth?
A: 1

Q: Please tell me: is the compound Cc1cnc(C(=O)O)c[n+]1[O-] [Acipimox] at or over 0.2 in terms of growth?
A: 1

Q: Please tell me: is the compound CC[C@H](C)[C@H](N)C1=N[C@H](C(=O)N[C@@H](CC(C)C)C(=O)N[C@H](CCC(=O)O)C(=O)N[C@H](C(=O)N[C@H]2CCCCNC(=O)[C@H](CC(N)=O)NC(=O)[C@@H](CC(=O)O)NC(=O)[C@H](Cc3cnc[nH]3)NC(=O)[C@@H](Cc3ccccc3)NC(=O)[C@H]([C@@H](C)CC)NC(=O)[C@@H](CCCN)NC2=O)[C@@H](C)CC)CS1 [Bacitracin] at or over 0.2 in terms of growth?
A: 1

Q: Please tell me: is the compound C[N+]1(CCCCC[N+]2(C)CCCC2)CCCC1 [Pentolinium bitartrate] at or over 0.2 in terms of growth?
A: 1

Q: Please tell me: is the compound CC(=O)[C@H]1CC[C@H]2[C@@H]3C=CC4=CC(=O)CC[C@@]4(C)[C@@H]3CC[C@]12C [Dydrogesterone] at or over 0.2 in terms of growth?
A: 1

Q: Please tell me: is the compound CN(C)c1nc(N(C)C)nc(N(C)C)n1 [Altretamine] at or over 0.2 in terms of growth?
A: 1

Q: Please tell me: is the compound CC1CS(=O)(=O)CCN1/N=C/c1ccc([N+](=O)[O-])o1 (configuration not stated) [Nifurtimox] at or over 0.2 in terms of growth?
A: -1

Q: Please tell me: is the compound Cc1ncc(CO)c(CO)c1O [Pyridoxine hydrochloride] at or over 0.2 in terms of growth?
A: 1

Q: Please tell me: is the compound CCC(=O)[C@@]1(C)[C@H](C)C[C@H]2[C@@H]3CCC4=CC(=O)C=C[C@]4(C)[C@H]3[C@@H](O)C[C@@]21C [Rimexolone] at or over 0.2 in terms of growth?
A: 1

Q: Please tell me: is the compound O=C(O)COCCN1CCN(C(c2ccccc2)c2ccc(Cl)cc2)CC1 (configuration not stated) [Cetirizine dihydrochloride] at or over 0.2 in terms of growth?
A: 1
